B1: Lysozyme C, milk isozyme, P81708 (parent)
chain: KIFSKCELARKLKSMGMDGFHGYSLANWVCMAEYESNFNTQAFNGRNSNGSSDYGIFQLNSKWWCKSNSHSSANACNIMCSKFLDDNIDDDIACAKRVVKDPNGMSAWVAWVKHCKGKDLSKYLASCNL

Variants of: B1
Particulars: Canis lupus familiaris; pH 4.5; Thermal; DSC; sodium acetate 50 mM; transition: 3; reversible: yes; structure 1EL1; whole UniProt chain shown
Answer each item with its documented change of melting temperature, mutant - wild type (higher = more stable).
Numbers only, in °C.

Please supply change of melting temperature, mutant - wild type (higher = more stable) for each of the following items, keeping them in order.
1. H21G
2. I56L
3. A93S
4. V109K

[-3.28, -2.44, -2.59, -4.16]
